- System: RARg:RXRa (NR concentration 270 nM, RXRa partner concentration 90 nM)
- TEST_PROTOCOL: PBM binding z-score (relative to random genomic background probes); higher = stronger binding; sequences stand for … in GC…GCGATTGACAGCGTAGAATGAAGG
Reported PBM binding z-score is given for each of the following sequences.

| POLYMER_SEQUENCE | PBM binding z-score |
| --- | --- |
| GGAACGAGAGCAAGTTGATAGCAGAGTTTGATGG | -0.186 |
| TGTCCAAGTTCAAAGGTAACGTAAGTATCCACAC | 4.05 |
| TCTCGGAGGACACGTAGGTCAGAGCTTTCCAGAG | 2.17 |
| CGTCCAAGGTCATAGTAGGTCAGTGAAGACAGAT | 6.11 |
| CCTGCTGGGCCAAAGGTCATTGATTCCAATGCTC | 5.82 |
| CTCGAAAGGTCGGTTCAGGTGAGTATACGGATAA | 2.64 |
| ACTAGCAGGCCAAATTTGGGTCACTCAAACAAAG | 2.39 |
| CCGTCTGGGGCAAGGTTACCATAACGCACAGCCA | 1.06 |
| TCTATTAGTTGTAGGGCAACCGACGAGTCCGTTT | 0.147 |
| TGTCAAAGTTGAAAGGTAACGTAAGTATCCACAC | 2.23 |
| GATACAGTGTCAAGGCCAGAGTACGCGTATTGAT | 0.527 |
| AGAACGAGGGCAGTGAGTTGATAGCACGGGTGGC | 0.413 |
| ACAGACAGGTGAGTGAAGGTAACTCAACTGGACG | 0.211 |
| CAAACTAGGTCACCCGAAGGTCAAAGTCCGCATG | 7.91 |
| CCTACTGGGGCAAAGGTTACCATACTCAGTACGA | 3.72 |
| ATATGTAGGATAAGGGTCATTCAGGTTGGTTCGC | 3.9 |
| ACTCTGAGGACAAAGGTCAGAGCTACGCCAGTGA | 6.21 |
| GCTTGTAGATCAAGGTTATGAAAGACTAAGCTAA | 0.306 |
| TCTATTTGTTGAAGGGCAACCGACGAGTCCGTTT | 0.705 |
| ATATGTAGGTTAGCTGGGGTCATACAGACTAGGC | 4.36 |
| AGGATGAGGTTATACGTAGATCAGGGAAGAAAGT | 1.85 |
| CGAACTAGGTCATCCAGGATAGTGAATACATTGA | 3.82 |
| TCTCGGAGGACACGAAGGTCATAGCTTTCCAGAG | 4.04 |
| CGTCCTAGGTCAGCAGGTCAGTGAAAGCGACGTG | 4.95 |
| TCTATTAGTTGATTAGGGCAACCGGAACAGCGGA | 0.516 |
| TCTATTAGTGGATTAGGGCAACCGAAACAGCGGA | 0.384 |
| GCTATTAGTTGAAAGGGCAAACGAATGATTCTCG | 1.24 |
| TATACATGGTCAAAGGCCAGAGTACGAATGTCGA | 1.59 |
| GCGACTGGGGCAAAGCAGGTTACCAAAAGGTTGG | 0.739 |
| TCGCCTAGGTCATTCAGGGGCCAGTATAGAAAGC | 6.06 |
| ACTATTAGTTGACTTTGGGCAACCGATACGACGC | 0.43 |
| CGAACTAGGTCAGAACAGCACAGTGAAGGATGAT | 2.44 |
| CCCAGTAGGTTATGGGGCATTCAGGCAACGGTGA | 0.653 |
| TCATATAGGTAAATCCTAGGTGAAAGTCCGATCT | 0.491 |
| CCTACTGGCCCAAAAAGGTCATTGATGCCGATAA | 4.52 |
| CCGACTGGGGCAAAGGTTACCAGACTCAGTACGA | 3.65 |
| ATCTCTAGGTCACCAAGTTCAGTGAATGCCGAAC | 5.35 |
| GCAAATAGGTAATACAAGGTGAAAGTCCGATTGT | 0.546 |
| ATCTGTAGGTAAAGATAGTTCAGTGAATGCAAAT | 0.435 |
| ATCGAAAGGTCGACGAGGGGAGTATACACCGTTT | 4.16 |
| ACTATTAGTTGACTTAGGTCAACCGATACGACGC | 2.8 |
| TTACCAAGGTGAGCTGAGGTCATTGATCCAACTC | 3.65 |
| TCATATAGGTCAACAGGTGAAAGTCCGTAAGTTA | 6.14 |
| GGAACGAGGGCATGTTGATAGCAGAGTTTGATGG | 0.813 |
| TCTAGTTGGTCACGGAGTTCACACACGACGGGTA | 2.99 |
| CCTTACGGGTCTCGAGGTTATAGCACGACGAGCG | 0.66 |
| ATCTCTAGGTAACAAAGTTCAGTGAATGCCGAAC | 2.04 |
| GCTGCGAGGTCAGGTTGGTCAGCTAACGGGTACG | 4.9 |
| AGTCAAAGTTCACTAGGTAACGCAAGATTCAGCT | 5.13 |
| CCTGACGGGTCAAGGTTATAGCACGGGTGGTACG | 4.37 |
| GCTCAGAGGACAAGGTCAGAGCTTTGTCCGTAGA | 3.51 |
